- method.description: Toxicokinetics after oral administration in mice
- Type: in vivo
- condition.label: mouse; male ICR mice, oral gavage 10 mg/kg, plasma, LC-HRMS, non-compartmental, mean ± SD, n = 7
reported.metric: AUC(0-inf) (ng·h/mL)
Write it as a number; the unit ng·h/mL goes unstated.

Looking for the measured AUC(0-inf) of `CC[C@H](C)[C@@H]1NC(=O)CNC(=O)[C@@H]2Cc3c([nH]c4cc(O)ccc34)[S@+]([O-])C[C@H](NC(=O)CNC1=O)C(=O)N[C@@H](CC(=O)O)C(=O)N1C[C@H](O)C[C@H]1C(=O)N[C@@H]([C@@H](C)[C@@H](O)CO)C(=O)N2` , can you help?
810

----------
- method.description: Toxicokinetics after intravenous injection in mice
- Type: in vivo
- condition.label: mouse; male ICR mice, iv bolus 0.8 mg/kg, plasma, LC-HRMS, non-compartmental, mean ± SD, n = 7
reported.metric: AUC(0-t) (ng·h/mL)
Write it as a number; the unit ng·h/mL goes unstated.

Looking for the measured AUC(0-t) of `CC[C@H](C)[C@@H]1NC(=O)CNC(=O)[C@@H]2Cc3c([nH]c4cc(O)ccc34)[S@+]([O-])C[C@H](NC(=O)CNC1=O)C(=O)N[C@@H](CC(=O)O)C(=O)N1C[C@H](O)C[C@H]1C(=O)N[C@@H]([C@@H](C)[C@@H](O)CO)C(=O)N2` , can you help?
769

----------
- method.description: Toxicokinetics after intravenous injection in mice
- Format: in vivo
- condition.label: mouse, plasma; male ICR mice, iv bolus 0.4 mg/kg, CLxMRT, mean ± SD, n = 6; read-out: Vss
- Protocol: The Institutional Animal Care and Use Committee of the Catholic University of Korea (approval number, CUK-IACUC-2021-004; approval date, 21 March 2021) approved the study protocol. […] Concentrations of β-amanitin in biological samples were evaluated following our previous methodology. […] The toxicokinetic parameters of β-amanitin were analyzed by non-compartmental analyses (WinNonlin, Pharsight; Mountain View, CA, USA) (Table 1). Data were expressed as mean ± standard deviations (SD). […]
reported.metric: Vd (L/kg)
Write it as a number; the unit L/kg goes unstated.

Looking for the measured Vd of CC[C@H](C)[C@@H]1NC(=O)CNC(=O)[C@@H]2Cc3c([nH]c4cc(O)ccc34)[S@+]([O-])C[C@H](NC(=O)CNC1=O)C(=O)N[C@@H](CC(=O)O)C(=O)N1C[C@H](O)C[C@H]1C(=O)N[C@@H]([C@@H](C)[C@@H](O)CO)C(=O)N2 [β-amanitin] , can you help?
0.366

----------
- method.description: Toxicokinetics after oral administration in mice
- Assay type: in vivo
- condition.label: mouse, plasma; male ICR mice, oral gavage 10 mg/kg, (dose normalized AUCPO/dose normalized AUCIV) × 100, mean ± SD, n = 7; read-out: F (oral bioavailability)
reported.metric: bioavailability (%)
Write it as a number; the unit % goes unstated.

Looking for the measured bioavailability of CC[C@H](C)[C@@H]1NC(=O)CNC(=O)[C@@H]2Cc3c([nH]c4cc(O)ccc34)[S@+]([O-])C[C@H](NC(=O)CNC1=O)C(=O)N[C@@H](CC(=O)O)C(=O)N1C[C@H](O)C[C@H]1C(=O)N[C@@H]([C@@H](C)[C@@H](O)CO)C(=O)N2 [β-amanitin] , can you help?
7.3

----------
- method.description: Urinary and fecal excretion in mice
- Type: in vivo, male ICR mice
- condition.label: ICR, mouse; male mice, oral gavage 10 mg/kg, urine 0–48 h, LC-HRMS, mean ± SD, n = 3; read-out: Cumulative urinary excretion for 48 h
reported.metric: dose excreted (%)
Write it as a number; the unit % goes unstated.

Looking for the measured dose excreted of CC[C@H](C)[C@@H]1NC(=O)CNC(=O)[C@@H]2Cc3c([nH]c4cc(O)ccc34)[S@+]([O-])C[C@H](NC(=O)CNC1=O)C(=O)N[C@@H](CC(=O)O)C(=O)N1C[C@H](O)C[C@H]1C(=O)N[C@@H]([C@@H](C)[C@@H](O)CO)C(=O)N2 [β-amanitin] , can you help?
2.4

----------
- method.description: in vivo
- Assay type: in vivo
- condition.label: mouse, in vivo; male ICR mice, iv 0.8 mg/kg, plasma, sampled 0.5, 1, 2, 4 h, LC-HRMS, mean ± SD, n = 4; read-out: AUClast, plasma (converted)
reported.metric: AUC(0-t) (ng·h/mL)
Write it as a number; the unit ng·h/mL goes unstated.

Looking for the measured AUC(0-t) of CC[C@H](C)[C@@H]1NC(=O)CNC(=O)[C@@H]2Cc3c([nH]c4cc(O)ccc34)[S@+]([O-])C[C@H](NC(=O)CNC1=O)C(=O)N[C@@H](CC(=O)O)C(=O)N1C[C@H](O)C[C@H]1C(=O)N[C@@H]([C@@H](C)[C@@H](O)CO)C(=O)N2 [β-amanitin] , can you help?
910

----------
- method.description: Toxicokinetics after oral administration in mice
- Type: in vivo
- condition.label: mouse, plasma; male ICR mice, oral gavage 5 mg/kg, (dose normalized AUCPO/dose normalized AUCIV) × 100, mean ± SD, n = 9; read-out: F (oral bioavailability)
reported.metric: bioavailability (%)
Write it as a number; the unit % goes unstated.

Looking for the measured bioavailability of `CC[C@H](C)[C@@H]1NC(=O)CNC(=O)[C@@H]2Cc3c([nH]c4cc(O)ccc34)[S@+]([O-])C[C@H](NC(=O)CNC1=O)C(=O)N[C@@H](CC(=O)O)C(=O)N1C[C@H](O)C[C@H]1C(=O)N[C@@H]([C@@H](C)[C@@H](O)CO)C(=O)N2` , can you help?
8.1

----------
- method.description: Urinary and fecal excretion in mice
- Format: in vivo, male ICR mice
- condition.label: ICR, mouse; male mice, iv bolus 0.8 mg/kg, metabolic cages, urine 0–48 h, LC-HRMS, mean ± SD, n = 4; read-out: Total urinary recovery (parent form) after 48 h
reported.metric: dose excreted (%)
Write it as a number; the unit % goes unstated.

Looking for the measured dose excreted of CC[C@H](C)[C@@H]1NC(=O)CNC(=O)[C@@H]2Cc3c([nH]c4cc(O)ccc34)[S@+]([O-])C[C@H](NC(=O)CNC1=O)C(=O)N[C@@H](CC(=O)O)C(=O)N1C[C@H](O)C[C@H]1C(=O)N[C@@H]([C@@H](C)[C@@H](O)CO)C(=O)N2 [β-amanitin] , can you help?
52.3

----------
- method.description: Toxicokinetics after oral administration in mice
- Type: in vivo
- condition.label: mouse; male ICR mice, oral gavage 10 mg/kg, plasma, LC-HRMS, non-compartmental, mean ± SD, n = 7
reported.metric: AUC(0-t)
Entry format: amount then unit.

Looking for the measured AUC(0-t) of CC[C@H](C)[C@@H]1NC(=O)CNC(=O)[C@@H]2Cc3c([nH]c4cc(O)ccc34)[S@+]([O-])C[C@H](NC(=O)CNC1=O)C(=O)N[C@@H](CC(=O)O)C(=O)N1C[C@H](O)C[C@H]1C(=O)N[C@@H]([C@@H](C)[C@@H](O)CO)C(=O)N2 [β-amanitin] , can you help?
698 ng·h/mL

----------
- method.description: Toxicokinetics after intravenous injection in mice
- Type: in vivo
- condition.label: mouse; male ICR mice, iv bolus 0.4 mg/kg, plasma, LC-HRMS, non-compartmental, mean ± SD, n = 6
reported.metric: AUC(0-inf) (ng·h/mL)
Write it as a number; the unit ng·h/mL goes unstated.

Looking for the measured AUC(0-inf) of CC[C@H](C)[C@@H]1NC(=O)CNC(=O)[C@@H]2Cc3c([nH]c4cc(O)ccc34)[S@+]([O-])C[C@H](NC(=O)CNC1=O)C(=O)N[C@@H](CC(=O)O)C(=O)N1C[C@H](O)C[C@H]1C(=O)N[C@@H]([C@@H](C)[C@@H](O)CO)C(=O)N2 [β-amanitin] , can you help?
421

----------
- method.description: Urinary and fecal excretion in mice
- Assay type: in vivo, male ICR mice
- condition.label: ICR, mouse; male mice, oral gavage 10 mg/kg, feces 0–48 h, LC-HRMS, mean ± SD, n = 3; read-out: Cumulative fecal excretion for 48 h
- Description: β-amanitin in water was administered by iv bolus injection into the tail vein at 0.8 mg/kg dose (n = 4) and by oral gavage at 10 mg/kg dose (n = 3) to male mice. Mice were returned to metabolic cages, and urine and feces samples were collected individually at 0–6, 6–12, 12–24, 24–36, and 36–48 h. Urine and feces samples were stored at −80 °C until the analysis. Each tissue and feces sample was homogenized in water (1:3, w/v). […]
reported.metric: dose excreted (%)
Write it as a number; the unit % goes unstated.

Looking for the measured dose excreted of `CC[C@H](C)[C@@H]1NC(=O)CNC(=O)[C@@H]2Cc3c([nH]c4cc(O)ccc34)[S@+]([O-])C[C@H](NC(=O)CNC1=O)C(=O)N[C@@H](CC(=O)O)C(=O)N1C[C@H](O)C[C@H]1C(=O)N[C@@H]([C@@H](C)[C@@H](O)CO)C(=O)N2` , can you help?
72.4

Just for reference, paper PMC9030691 is where these values come from.
